Data credit: patent US12448423

study-target: T1, cynomolgus CD8 (captured on the Octet biosensor) (cynomolgus)
T1 construct: Construct not described; also called cyno CD8; cyno CD8a
T1 sequence (P30433 other isoform, or with tags, fused parts or gaps): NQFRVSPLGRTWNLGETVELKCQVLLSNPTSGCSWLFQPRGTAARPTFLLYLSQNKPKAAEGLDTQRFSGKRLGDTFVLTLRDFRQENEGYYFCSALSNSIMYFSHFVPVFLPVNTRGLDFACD
assay-comment: Octet (BLI); cynomolgus CD8 captured, dipped into multiple concentrations of the one-arm mAb
Assign Kd to each entry below.
Supply the numeric figure in nM, leaving out any unit text.

Item: XENP26235 (antibody, V domains shown, also called OKT8_H2.158_L1.103 one-arm mAb) VH: QVQLVQSGAEVKKPGASVKVSCKASGFNIKDTYIHWVRQAPGKGLEWMGRIDPDNGETLYASKFQGRVTMTADTSINTAYMELSRLRSDDTAVYYCGRGYGYYYFDHWGQGTTVTVSS VL: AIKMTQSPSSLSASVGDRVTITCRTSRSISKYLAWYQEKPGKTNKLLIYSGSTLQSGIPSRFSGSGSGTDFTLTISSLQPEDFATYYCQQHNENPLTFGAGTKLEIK | Kd: 33.5

Item: XENP26237 (antibody, V domains shown, also called OKT8_H2.160_L1.103 one-arm mAb) VH: QVQLVQSGAEVKKPGASVKVSCKASGFNIKDTYIHWVRQAPGKGLEWMGRIDPDNDETLYASKFQGRVTMTADTSINTAYMELSRLRSDDTAVYYCGRGYGYYVFDHWGQGTTVTVSS VL: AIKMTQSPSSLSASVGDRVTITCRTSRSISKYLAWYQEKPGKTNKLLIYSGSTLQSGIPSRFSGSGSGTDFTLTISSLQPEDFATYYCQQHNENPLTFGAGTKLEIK | Kd: 67.4

Item: XENP26019 (antibody, V domains shown, also called OKT8_H2.152_L1.113 one-arm mAb) VH: QVQLVQSGAEVKKPGASVKVSCKASGFNIKDTYIHWVRQAPGKGLEWMGRIDPDNGETLYASKFQGRVTITADTSINTAYMELSRLRSDDTAVYYCGRGYGYYVFDHWGQGTTVTVSS VL: AIKMTQSPSSLSASVGDRVTITCRTSRSISIYLAWYQEKPGKTNKLLIYKGSTLQSGIPSRFSGSGSGTDFTLTISSLQPEDFATYYCQQANENPLTFGAGTKLEIK | Kd: 80.7

Item: XENP26239 (antibody, V domains shown, also called OKT8_H2.162_L1.103 one-arm mAb) VH: QVQLVQSGAEVKKPGASVKVSCKASGFNIKDTYIHWVRQAPGKGLEWMGRIDPDNDETLYASKFQGRVTITADTSINTAYMELSRLRSDDTAVYYCGRGYGYYYFDHWGQGTTVTVSS VL: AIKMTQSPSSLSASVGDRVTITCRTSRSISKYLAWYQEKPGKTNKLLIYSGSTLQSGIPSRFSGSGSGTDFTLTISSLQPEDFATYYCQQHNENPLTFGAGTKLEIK | Kd: 66.6

Item: XENP26243 (antibody, V domains shown, also called OKT8_H2.166_L1.103 one-arm mAb) VH: QVQLVQSGAEVKKPGASVKVSCKASGFNIKDTYIHWVRQAPGKGLEWMGRIDPDNDETLYASKFQGRVTMTADTSINTAYMELSRLRSDDTAVYYCGRGWGYYVFDHWGQGTTVTVSS VL: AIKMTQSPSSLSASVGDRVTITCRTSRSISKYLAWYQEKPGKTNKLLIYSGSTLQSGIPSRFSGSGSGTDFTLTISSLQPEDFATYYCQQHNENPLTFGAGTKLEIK | Kd: 55.9

Item: XENP26240 (antibody, V domains shown, also called OKT8_H2.163_L1.103 one-arm mAb) VH: QVQLVQSGAEVKKPGASVKVSCKASGFNIKDTYIHWVRQAPGKGLEWMGRIDPDNDETLYASKFQGRVTITADTSINTAYMELSRLRSDDTAVYYCGRGWGYYVFDHWGQGTTVTVSS VL: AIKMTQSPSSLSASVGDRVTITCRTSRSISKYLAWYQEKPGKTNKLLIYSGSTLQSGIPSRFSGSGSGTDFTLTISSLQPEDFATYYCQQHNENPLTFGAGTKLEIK | Kd: 75.4

Item: XENP26232 (antibody, V domains shown, also called OKT8_H2.155_L1.103 one-arm mAb) VH: QVQLVQSGAEVKKPGASVKVSCKASGFNIKDTYIHWVRQAPGKGLEWMGRIDPDNGETLYASKFQGRVTITADTSINTAYMELSRLRSDDTAVYYCGRGYGYYYFDHWGQGTTVTVSS VL: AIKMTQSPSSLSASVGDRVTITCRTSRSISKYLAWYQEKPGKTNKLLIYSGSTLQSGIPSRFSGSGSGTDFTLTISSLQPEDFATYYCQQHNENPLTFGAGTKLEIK | Kd: 35.7

Item: XENP26230 (antibody, V domains shown, also called OKT8_H2.153_L1.103 one-arm mAb) VH: QVQLVQSGAEVKKPGASVKVSCKASGFNIKDTYIHWVRQAPGKGLEWMGRIDPDNGETLYASKFQGRVTMTADTSINTAYMELSRLRSDDTAVYYCGRGYGYYVFDHWGQGTTVTVSS VL: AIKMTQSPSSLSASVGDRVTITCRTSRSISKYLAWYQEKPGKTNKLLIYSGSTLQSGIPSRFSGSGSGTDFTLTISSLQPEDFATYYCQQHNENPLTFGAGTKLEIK | Kd: 39.2

Item: XENP26234 (antibody, V domains shown, also called OKT8_H2.157_L1.103 one-arm mAb) VH: QVQLVQSGAEVKKPGASVKVSCKASGFNIKDTYIHWVRQAPGKGLEWMGRIDPDNGETLYASKFQGRVTMTADTSINTAYMELSRLRSDDTAVYYCGRGYGKYVFDHWGQGTTVTVSS VL: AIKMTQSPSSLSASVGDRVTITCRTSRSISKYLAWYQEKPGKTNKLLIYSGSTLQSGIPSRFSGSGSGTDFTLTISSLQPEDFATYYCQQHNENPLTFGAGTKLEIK | Kd: 55.6

Item: XENP26236 (antibody, V domains shown, also called OKT8_H2.159_L1.103 one-arm mAb) VH: QVQLVQSGAEVKKPGASVKVSCKASGFNIKDTYIHWVRQAPGKGLEWMGRIDPDNGETLYASKFQGRVTMTADTSINTAYMELSRLRSDDTAVYYCGRGWGYYVFDHWGQGTTVTVSS VL: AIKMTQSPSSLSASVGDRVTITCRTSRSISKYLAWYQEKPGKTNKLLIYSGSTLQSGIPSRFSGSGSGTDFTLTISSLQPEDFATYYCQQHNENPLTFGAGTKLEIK | Kd: 55.1
